These measurements were taken from ChEMBL document CHEMBL1146111.

- system_name: CYP3A4 (Homo sapiens)
- Sequence (P08684 whole entry): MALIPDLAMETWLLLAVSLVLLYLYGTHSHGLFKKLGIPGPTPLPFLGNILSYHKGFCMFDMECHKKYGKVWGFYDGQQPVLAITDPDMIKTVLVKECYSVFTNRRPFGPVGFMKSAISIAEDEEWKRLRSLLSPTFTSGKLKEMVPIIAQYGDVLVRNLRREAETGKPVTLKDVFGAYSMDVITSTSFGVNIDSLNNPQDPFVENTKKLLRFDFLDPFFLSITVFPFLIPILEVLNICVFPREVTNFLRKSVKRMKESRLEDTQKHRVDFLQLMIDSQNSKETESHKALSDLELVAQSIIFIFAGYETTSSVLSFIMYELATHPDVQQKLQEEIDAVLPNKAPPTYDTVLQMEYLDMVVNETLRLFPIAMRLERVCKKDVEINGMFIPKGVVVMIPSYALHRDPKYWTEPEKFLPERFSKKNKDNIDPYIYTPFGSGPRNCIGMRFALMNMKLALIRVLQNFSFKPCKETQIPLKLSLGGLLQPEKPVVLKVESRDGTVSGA
- protocol_notes: Inhibition of CYP3A4 at 10 uM
- Assay type: ADME
parameter: inhibition at 10 µM

Give the value of inhibition at 10 µM reported for the following: N=C(N)c1ccc2[nH]c(-c3cc(C(CC(=O)O)C(=O)O)cc(-c4cc(CNC(N)=O)ccc4O)c3O)nc2c1 (stereo unspecified)
< 40%

###

- protocol_notes: Plasma clearance in iv dosed C57BL/6 mice
- Type: ADME, organism-based
- setup_conditions: C57BL/6, mouse
parameter: clearance (mL/min)
Please reply with the bare figure in mL/min and do not write the unit itself.

Fill in clearance for record N=C(N)c1ccc2[nH]c(-c3cc(C(CC(=O)O)C(=O)O)cc(-c4cc(CNC(N)=O)ccc4O)c3O)nc2c1 (stereo unspecified)
0.103
